Every entry's value here was drawn from the nanobody polyreactivity screen of Harvey et al. (2022).

experiment: yeast display, Sf9 membrane polyspecificity reagent, FACS + sequencing; frameworks hold sequencing errors
READOUT_TYPE: polyreactivity (PSR sort gate)

Report polyreactivity (PSR sort gate) for "QVQLVESGGGLVQAGGSLRFSCAASGRIFRRYAMGWYRQAPGKERELVAAITQSGDSTYYADSVKGRFTISRDNAKNTVYLQMNSLKPEDTAVYYCAAAGGPYRYNYWGQGTQVTVSS" please.
high polyreactivity

Quick check: polyreactivity (PSR sort gate) of "QVQLVESGGGLVQAGGSLRLSCAASGSTFPYYTMGWYRQAPGKERELVAAITWRGGRTYYADSVKGRFTISRDNAKYTVYLQMNSLKPEDTAVYYCNAYGIDTGDYWGQGTQVTVSS" ?
high polyreactivity

###

assay: yeast display, Sf9 membrane polyspecificity reagent, FACS + sequencing; frameworks hold sequencing errors
READOUT_TYPE: polyreactivity (PSR sort gate)

So what's the measured polyreactivity (PSR sort gate) for this one? "QVQLVYSGGGLVQAGGSLRLSCAASGSLFYHNAMGWYRQAAGKEMELDADISWSGGSTYYADSVKGRFTISRDYAKNTVYLQMNSLKPEDTAVYYGNTDARYDEYDEFDYWGQGTQVTVSS"
low polyreactivity

// returns reported polyreactivity (PSR sort gate) for input "QVQLVESGGGLVQAGGSLRLSCAASGFTLFWNDMGWYRQAPGKERELVAAITSGDDTYADSVKGRFTISRDNAKNTVYLQMNSLKPEDTAVYYCNKDDPLRNVAQVILYEFYYWGQGTQVTVSS"
low polyreactivity

Which polyreactivity (PSR sort gate) value belongs to "QDQLVETGGGLVQARGSLRLSCAASGITFDKYAMGWYRQAPGKERELVAAISGSDGSTYYADSVKGRFTISRDNAKNTVYLQMNSLKQEDTSVYYCAAESEYAGTFEYDYWGQGTQVSVSS" ?
low polyreactivity

State the recorded polyreactivity (PSR sort gate) for this entry: "QGQLVESGGGLVQAGGSLRLSCAASGFIFRYYTMGWYRQAPGKERELVAAITSRGGSTYYADSVKGRFTISRDNAKNTFYLQMNSLKPEDTAVYYCATTRWGYEYWGQGTQVTVSS"
high polyreactivity

Requested read-out: polyreactivity (PSR sort gate). Entry: "QVQLVESGGGLVQAGGSHRLSCAASGSIFSWYAMGWYRQAPGKVRELVAAITWTRGSTYYADSVKGRFTISRDTANNTVYLQMKSLKPDDSAVYYCAARRVVYRYYWYSAYVYWGQGTQVTVSS"
high polyreactivity

Request the reported polyreactivity (PSR sort gate) associated with "QVQLGESGGGLVQAGGSRRFSSAASGSIVKAYAMGWYRPAPGKDRELVAAISTSDGSTYYADSVKGRFTISRDNAKNTVYLQMNSLKPEDTAVYYCATEYDYWDDSYDSWGQGTQVTVSS"
low polyreactivity

Next sequence, please.
What value of measured polyreactivity (PSR sort gate) is listed for "QVQLVESGGGLVQAGGSLRLSCAASGSIFRSYAMGWYRQAPGKERELVAAISRRGGSTYYADSVKGRFTISRDNAKNTVYLQMNSLKPADTAVYYCAADRTGPYDYWGQGTQVTVSS" ?
high polyreactivity

###

assay: yeast display, Sf9 membrane polyspecificity reagent, FACS + sequencing; frameworks hold sequencing errors
READOUT_TYPE: polyreactivity (PSR sort gate)

What does the record list as polyreactivity (PSR sort gate) for "QVQLVESGGGLVQAGGSLRLSCAASGGIFRGYTMGWYRQAPGKERELVAAISKGGGSTYYADSVKGRFTISRDIAKNTVYLQMNSLKPEDTAVYYCAARHVYPLLDYWGQGTQVTVSS" ?
high polyreactivity

Which polyreactivity (PSR sort gate) reading was recorded for the sequence "QVQLVESGGGIVQAGGSLRLSCAASGIIFGYYAMGWYRQAPGKERELVAAISRRGGSTYYADSVKGRFTISRDNATITVYLQMHSLKPEDSAVSYCAAVELRLSTPDMESWVQGTQVTVSS" ?
high polyreactivity

Quick check: polyreactivity (PSR sort gate) of "QVQLVESGGGLVQAGGSLRLSCAASGSTFGVYAMGWYRQAPGKERELVATITRSGGNTYYADSVKGRFTISRDNAKNTVYLQMNSLKPEDTAVYYCAARRLYGSQRGYWGQGTQVTVSS" ?
high polyreactivity

Which polyreactivity (PSR sort gate) reading was recorded for the sequence "QVQLVESGGGLVQAGGSLRLSCAASGRILAANAMGWYRQAPGKERELVAAISWSGGRTYYADSVKGRFTISRDNAKNTVYLQMNSLKPEDTAVYYCNKLALAGYDYWGQGTQVTVSS" ?
high polyreactivity

Endpoint output: polyreactivity (PSR sort gate) of "QVQLVESGGGLVQAGGSLRLSCAASGIPRNTMGWYRQAPGKETELVASISTSGGSTYYADSVKGRFTISRDNAKNTVYLQMNSLKPEDTAVYYCAKKGYASRYFIYDYWGQGTQVTVSS" . Value?
low polyreactivity

Form field: reported polyreactivity (PSR sort gate) of "QVQLVESGGGLVQAGGSLRLSCAASGSTFPAYAMGWYRQAPGKERELVATITYTGGSTYYADSVKGRFTISRDNAKNTVYLQMNSLKPEDTAVYYCAADRLVQEDEFDYWGQGTQVTVSS"
low polyreactivity

Return reported polyreactivity (PSR sort gate); argument: "QVQLVESGGGLVQAGGSLRLSCAASGSTLYSNAMGWYRQAPGKERELVATIDWSGGRTYYADSVKGRFTISRDNAKNTVYLQMNSLKPEDTAVYYCAARQSRDFRYRGFYYWGQGTQVTVSS"
high polyreactivity

Endpoint output: polyreactivity (PSR sort gate) of "QVQLVESGGGLVQAGGSLRLSCAASGGIFRQYAMGWYRQAPGKERELVAAISYNTGSTYYADSVKWRFTISRDNAKNTVYLQMNSLKPEDTAVYYCAKDIVIPATYVEYDYWGKGTQVTVSS" . Value?
low polyreactivity

Requested read-out: polyreactivity (PSR sort gate). Entry: "QVKLVESGGGLVQAGGSLRLSSAASGSTFEYNAMGWYRQAPGKERELVASSTNYADSVKGRFTISRDNAKNTVYLQMTSRKPEDTAVYYCAREQGVNRNHDYWGQGTQVTVSS"
low polyreactivity

Tell me the measured polyreactivity (PSR sort gate) of "QVQLVESGGGLVQAGGSLRLTCAASGGIFRPNAMGWYRPAPGKERELVASIDDGDSTNYADSVKGPFTISRDNAKNTVSLQMNSLKPEDTAVYYFAAEQGYTVIYDYWGQGSQVTVSS" , please.
low polyreactivity

New cases:
For "QVQLVESGGGLVQAGGSLRLSCAASGSIFKTNARGLYRQAPGTEREFVAAISWSGGSTYADSVKGRFTISRDTAKNTVYLQMNSLKPEDTAVYYCAAVDYYYYGVYSSWYDYWGQGTQVTVSS" , what is its reported polyreactivity (PSR sort gate)?
low polyreactivity

###

test: yeast display, Sf9 membrane polyspecificity reagent, FACS + sequencing; frameworks hold sequencing errors
READOUT_TYPE: polyreactivity (PSR sort gate)

For the sequence "QVQLVESGGGLVQAGGSLRLSCAASGIIFSWYDMGWYRQAPGKERELVAAISYRGSTNYADSVKGRFTISLDNAKNTVYLQMNSLKPEDTAVYYCNGPRRQYEYDYWGQGTQVTVSS" , what polyreactivity (PSR sort gate) is on record?
high polyreactivity

Entry "QVQLVESGGGLVQAGGSLRLSCAASGFIFEYYAMGWYRQAPGKERELVAAINGGGGNTYYADSVKGRFTISRDNAKNTVYLQMNSLKPEDTAVYYCNAKRRKYRYDYWGQGTEVTVSS" has what polyreactivity (PSR sort gate)?
high polyreactivity

Give its polyreactivity (PSR sort gate) value. Item: "QVQLVESGGGLVQAGGSLRLSCAASGYIFQKNAMGWYRQAPGKERELVAAISSGTDRTYYADSVKGRFTISRDNAKYTVYLQMNSLKPDDTAVYYCAARYWGGYYYWGQGTQVTVSS"
high polyreactivity

###

assay: yeast display, Sf9 membrane polyspecificity reagent, FACS + sequencing; frameworks hold sequencing errors
READOUT_TYPE: polyreactivity (PSR sort gate)

Take a look at these entries with their results.
// query polyreactivity (PSR sort gate) value for entry "QVQLVESGGGLVQAGGSLRLSCAASGRIFGYNGMGWYRQAPGKERELVAAITSGGRTYYADSVKGRFTISRDNAKNTVYLQMNSLKPEDTAVYYCAAYFYQRGYGYVGPYGYWGQGTQVTVSS"
high polyreactivity

polyreactivity (PSR sort gate) lookup needed for "QVQLVESGGGLVQAGGSLRLSCAASGRTFVPYAMGWYRQAPGKERELVAAISSSGGSTYYADSVKGRFTISRDNAKNTVYLQMNSLKPDDTAVYYCAAKSRKGGEYWGQGTQVTVSS" , thanks.
high polyreactivity

What value of polyreactivity (PSR sort gate) has been reported for the following sequence? "QVQLVESGGGLVQAGGSLRLSCADSGTTFVKYAMGWYRQAPGKERELVAAISSRGGRTYYADSVKGRFTISRDNAKNTVYLQMNSLKPEDTEVYYCNKGTRLDGEYEYWGHGTQVTVSS"
high polyreactivity

Could you tell me which polyreactivity (PSR sort gate) is on file for "QVQLVESGGGLVQAGGSLRLSCAASGRTFVYNAMGWYRQAPGKERELVAAITSGGSTYYADSVKGRFTMSRDNAKNTVYLQMNSLKPEDTAVYYCDGYKRGYYWGQGTQVTVSS" ?
high polyreactivity

Now for the sequence whose polyreactivity (PSR sort gate) we want.
Fill in the blank: the reported polyreactivity (PSR sort gate) of "QVQLVESGGGLVQAGGSLRLSCAASGRIFSYNTVMGWYRQAPGKERELVAAITYSSASTYYADSVKGRFTISRDNAKNTVYLQMNSLKPEDTAVYYCAADAYTPGYRGDYWGQGTQVTVSS" is ____.
low polyreactivity
